# TESTED_TARGET: GST tagged truncated human mutant G2019S LRRK2 (Homo sapiens (Human), UniProt Q5S007, G2019S)
# Sequence (Q5S007 970-2527 G2019S): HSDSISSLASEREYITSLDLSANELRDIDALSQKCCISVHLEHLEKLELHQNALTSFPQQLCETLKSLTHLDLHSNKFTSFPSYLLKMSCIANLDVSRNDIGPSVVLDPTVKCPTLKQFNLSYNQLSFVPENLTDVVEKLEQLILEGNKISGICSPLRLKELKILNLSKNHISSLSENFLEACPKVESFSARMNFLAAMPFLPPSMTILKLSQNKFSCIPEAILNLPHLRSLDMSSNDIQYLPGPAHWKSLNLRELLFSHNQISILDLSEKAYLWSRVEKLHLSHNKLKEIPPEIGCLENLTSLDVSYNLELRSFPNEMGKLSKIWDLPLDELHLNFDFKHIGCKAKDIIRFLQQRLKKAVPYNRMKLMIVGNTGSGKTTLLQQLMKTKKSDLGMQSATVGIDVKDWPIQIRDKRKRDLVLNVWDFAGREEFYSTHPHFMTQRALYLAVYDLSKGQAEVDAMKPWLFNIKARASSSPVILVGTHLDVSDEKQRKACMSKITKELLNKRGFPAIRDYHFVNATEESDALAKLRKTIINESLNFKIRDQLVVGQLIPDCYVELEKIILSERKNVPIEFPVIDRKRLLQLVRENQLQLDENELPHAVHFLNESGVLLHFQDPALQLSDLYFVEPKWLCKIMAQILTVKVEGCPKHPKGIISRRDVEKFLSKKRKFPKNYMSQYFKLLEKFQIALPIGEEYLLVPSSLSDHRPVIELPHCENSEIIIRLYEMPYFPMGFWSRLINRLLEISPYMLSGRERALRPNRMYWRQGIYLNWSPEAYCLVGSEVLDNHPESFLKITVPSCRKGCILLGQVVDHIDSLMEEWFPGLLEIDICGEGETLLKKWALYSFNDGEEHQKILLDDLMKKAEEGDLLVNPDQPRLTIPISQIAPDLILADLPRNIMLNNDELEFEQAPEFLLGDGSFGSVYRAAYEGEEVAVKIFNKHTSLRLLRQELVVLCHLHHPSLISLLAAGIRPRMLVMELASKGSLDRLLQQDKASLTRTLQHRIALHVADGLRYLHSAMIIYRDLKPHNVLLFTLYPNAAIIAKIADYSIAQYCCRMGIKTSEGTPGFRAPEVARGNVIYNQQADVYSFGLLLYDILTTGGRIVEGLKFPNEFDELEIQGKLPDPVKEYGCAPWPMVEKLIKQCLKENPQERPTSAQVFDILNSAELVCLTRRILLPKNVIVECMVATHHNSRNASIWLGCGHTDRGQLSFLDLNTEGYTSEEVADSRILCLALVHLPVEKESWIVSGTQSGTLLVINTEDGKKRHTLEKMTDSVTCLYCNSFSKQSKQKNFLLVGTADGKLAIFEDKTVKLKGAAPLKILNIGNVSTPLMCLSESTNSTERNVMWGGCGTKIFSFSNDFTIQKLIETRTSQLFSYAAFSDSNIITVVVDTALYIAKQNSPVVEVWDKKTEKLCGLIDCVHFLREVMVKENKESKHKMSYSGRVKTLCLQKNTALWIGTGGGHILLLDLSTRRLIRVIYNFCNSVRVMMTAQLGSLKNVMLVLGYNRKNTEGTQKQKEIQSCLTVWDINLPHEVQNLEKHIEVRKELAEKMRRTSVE
# PROTOCOL: LRRK2 Km ATP LanthaScreen Assay
# Format: biochemical
# CONDITION: G2019S LRRK2, 134 μM ATP (Km ATP), mean values
Each entry below carries its reported LRRK2 pIC50.

Here is how some molecules turned out for LRRK2 pIC50.
{"MOLECULE": "Cc1cc2cnc(Nc3cnn(C)c3C)nc2cc1[C@@H]1CCN([C@@H]2COC[C@@H]2O)C[C@H]1F (single isomer, unassigned) [Ex-4.257]", "LRRK2 pIC50": ">9.20"}
{"MOLECULE": "Cc1cc(Nc2ncc3cc(Cl)c(C4CCN([C@H]5COC[C@H]5O)CC4)cc3n2)n(C)n1 (single isomer, unassigned) [Ex-2.68]", "LRRK2 pIC50": ">9.20"}

Turning to the following molecule.
Problem: Which LRRK2 pIC50 reading was recorded for the molecule CC1(n2ncc(Nc3ncc4cc(Cl)c(C5CCN(CCC#N)CC5)cc4n3)c2Cl)CC1 [Ex-8.13] ?
Result: >9.20

----------
Each entry below carries its reported IC50.
# TESTED_TARGET: GST tagged truncated human mutant G2019S LRRK2 (Homo sapiens (Human), UniProt Q5S007, G2019S)
# PROTOCOL: LRRK2 Km ATP LanthaScreen Assay
# Assay type: biochemical
# CONDITION: G2019S LRRK2, 134 μM ATP (Km ATP), mean values; read-out: LRRK2 pIC50 (converted)

Here is how some compounds turned out for IC50.
{"COMPOUND": "F[C@@H]1CNCC[C@H]1c1cc2nc(Nc3cnn(C4CC4)c3Cl)ncc2cc1Cl (single isomer, unassigned) [Ex-4.2]", "IC50": "< 0.631 nM"}
{"COMPOUND": "Cc1c(Nc2ncc3cc(Cl)c(C4CCN(C5COC(C)(C)C5)CC4)cc3n2)cnn1C1CC1 (single isomer, unassigned) [Ex-4.174]", "IC50": "< 0.631 nM"}

Problem: Which IC50 reading was recorded for the compound Cc1c(Nc2ncc3cc(Cl)c(C4CCN(CC(O)CN5CCOCC5)CC4)cc3n2)cnn1C1CC1 (single isomer, unassigned) [Ex-4.227] ?
Result: < 0.631 nM

Problem: One more compound: C[C@@H]1CC(c2cc3nc(Nc4cnn(C5CC5)c4Cl)ncc3cc2Cl)CCN1C1COC1 (single isomer, unassigned) [Ex-1.11]
Result: < 0.631 nM

----------
Each entry below carries its reported LRRK2 pIC50.
# TESTED_TARGET: GST tagged truncated human mutant G2019S LRRK2 (Homo sapiens (Human), UniProt Q5S007, G2019S)
# PROTOCOL: LRRK2 Km ATP LanthaScreen Assay
# Format: biochemical
# CONDITION: G2019S LRRK2, 134 μM ATP (Km ATP), mean values

Here is how some compounds turned out for LRRK2 pIC50.
{"COMPOUND": "Cc1c(Nc2ncc3cc(Cl)c([C@@H]4CCN([C@@H]5COC[C@@H]5O)C[C@H]4F)cc3n2)cnn1C1CC1(F)F (single isomer, unassigned)", "LRRK2 pIC50": ">9.20"}
{"COMPOUND": "Cc1c(Nc2ncc3cc(Cl)c(C4CCN([C@@H]5COC[C@@H]5O)CC4)cc3n2)cnn1C1CC1(F)F (single isomer, unassigned)", "LRRK2 pIC50": ">9.20"}

Turning to the following compound.
Problem: Which LRRK2 pIC50 reading was recorded for the compound Cn1ncc(Nc2ncc3cc(Cl)c(C4CCN([C@H]5COC[C@H]5O)CC4)cc3n2)c1Cl (single isomer, unassigned) ?
Result: >9.20

----------
Each entry below carries its reported LRRK2 pIC50.
# TESTED_TARGET: GST tagged truncated human mutant G2019S LRRK2 (Homo sapiens (Human), UniProt Q5S007, G2019S)
# PROTOCOL: LRRK2 Km ATP LanthaScreen Assay
# Type: biochemical
# CONDITION: G2019S LRRK2, 134 μM ATP (Km ATP), mean values

Problem: Which LRRK2 pIC50 reading was recorded for the molecule Cc1cc2cnc(Nc3cnn(C4CC4)c3Cl)nc2cc1C1CCN([C@@H]2COC[C@@H]2O)[C@@H](C)C1 (single isomer, unassigned) ?
Result: >9.20

Problem: One more molecule: CN(C)CC12CC(n3cc(Nc4ncc5cc(Cl)c(C6CCN(C7(C)COC7)CC6)cc5n4)cn3)(C1)C2
Result: >9.20

Problem: One more molecule: Cc1cc2cnc(Nc3cnn(C4CC4(F)F)c3Cl)nc2cc1[C@@H]1CCN(C2COC[C@@H]2O)C[C@H]1F (single isomer, unassigned)
Result: >9.20

Problem: One more molecule: F[C@H]1CN(C2COC2)CC[C@@H]1c1cc2nc(Nc3cnn(C4CC4)c3Cl)ncc2cc1Cl (single isomer, unassigned)
Result: >9.20

Problem: One more molecule: Clc1cc2cnc(Nc3cnn(CC4CC4)c3Cl)nc2cc1C1CCNCC1
Result: >9.20

Problem: One more molecule: CC1(n2ncc(Nc3ncc4cc(Cl)c(C5CCN(C6COC6)CC5)cc4n3)c2Cl)CC1
Result: >9.20

Problem: One more molecule: N#CC1COCC1N1CCC(c2cc3nc(Nc4cnn(C5CC5)c4Cl)ncc3cc2Cl)CC1 (single isomer, unassigned) [Ex-4.102]
Result: >9.20
